Assay: Plasma pharmacokinetics of ATRA in study patients
Format: in vivo
Conditions: human, oral, 22.5 mg/m2
measurement_label: Vd

compound="CC1=C(/C=C/C(C)=C/C=C/C(C)=C/C(=O)O)C(C)(C)CCC1 [ATRA, all-trans retinoic acid]" value_measured="101 L"

---

Test: Plasma pharmacokinetics of dasatinib in study patients
Settings: human, plasma, oral, 70 mg
measurement_label: Cmax (ng/mL)

compound="Cc1nc(Nc2ncc(C(=O)Nc3c(C)cccc3Cl)s2)cc(N2CCN(CCO)CC2)n1 [Dasatinib]" measurement_label=Cmax value_measured=77

---

Assay: Plasma pharmacokinetics of ATRA in study patients
Assay type: in vivo
Conditions: human, oral, 22.5 mg/m2
measurement_label: AUC(0-t)

compound="CC1=C(/C=C/C(C)=C/C=C/C(C)=C/C(=O)O)C(C)(C)CCC1 [ATRA, all-trans retinoic acid]" measurement_label=AUC(0-t) value_measured="578 ng·h/mL"
